# study target: hAR (human androgen receptor) (Homo sapiens, UniProt P10275)
# Construct: made in house; host or cells: baculovirus/Sf9 insect cells
# Sequence (P10275 whole entry): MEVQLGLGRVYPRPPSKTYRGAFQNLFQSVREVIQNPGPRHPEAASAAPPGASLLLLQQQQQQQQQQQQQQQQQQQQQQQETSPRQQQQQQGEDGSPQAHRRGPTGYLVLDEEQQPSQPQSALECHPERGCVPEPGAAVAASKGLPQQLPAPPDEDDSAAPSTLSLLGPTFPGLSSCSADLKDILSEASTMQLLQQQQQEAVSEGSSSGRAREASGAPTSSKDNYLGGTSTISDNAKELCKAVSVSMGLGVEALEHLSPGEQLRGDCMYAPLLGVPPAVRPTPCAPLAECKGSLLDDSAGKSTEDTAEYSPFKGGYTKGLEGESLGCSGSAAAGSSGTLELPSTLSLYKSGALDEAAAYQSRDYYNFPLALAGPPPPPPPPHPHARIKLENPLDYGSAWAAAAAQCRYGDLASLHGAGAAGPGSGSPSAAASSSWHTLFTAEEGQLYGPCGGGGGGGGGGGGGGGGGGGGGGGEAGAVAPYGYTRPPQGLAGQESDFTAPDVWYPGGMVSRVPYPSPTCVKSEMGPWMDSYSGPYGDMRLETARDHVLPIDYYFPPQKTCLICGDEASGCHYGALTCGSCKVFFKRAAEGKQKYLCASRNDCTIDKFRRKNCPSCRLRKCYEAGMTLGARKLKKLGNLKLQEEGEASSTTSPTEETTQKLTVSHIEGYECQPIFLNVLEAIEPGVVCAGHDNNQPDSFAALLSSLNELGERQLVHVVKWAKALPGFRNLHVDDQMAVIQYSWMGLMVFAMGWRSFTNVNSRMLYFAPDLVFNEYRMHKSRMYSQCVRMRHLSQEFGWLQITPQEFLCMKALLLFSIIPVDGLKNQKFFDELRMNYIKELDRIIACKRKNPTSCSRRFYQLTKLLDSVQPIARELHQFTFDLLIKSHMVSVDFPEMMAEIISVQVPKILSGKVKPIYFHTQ
# run description: Competitive binding analysis on hAR extracts with 3H-DHT tracer
parameter: IC50 (nM)
Give bare numbers, in nM.

// below: answered molecules
- CCC(C)N(C)c1cc(C(F)(F)F)c(C#N)cn1 (stereo not drawn): 10
- C[C@H](c1ccccc1)N(C)c1cc(C(F)(F)F)c(C#N)cn1: 20
- CCC(C)N(C)c1cc(C(F)(F)F)c(C#N)c(Cl)n1 (stereo not drawn): 0.5
- CCCN(CCC)c1cc(C(F)(F)F)c(C#N)cn1: 22
- CC(c1ccccc1)N(C)c1cc(C(F)(F)F)c(C#N)cn1 (stereo not drawn): 123

IC50 reading for "CCCN(CCC)c1cc(C(F)(F)F)c(C#N)c(Cl)n1" : 8.2

* * *

For each entry below, report its pIC50 value.
# study target: hAR (human androgen receptor) (Homo sapiens)
# Construct: made in house; host or cells: baculovirus/Sf9 insect cells
# run description: Competitive binding analysis on hAR extracts with 3H-DHT tracer
# condition parameters: baculovirus/Sf9 generated hAR extract, 1 nM 3H-DHT, one hour at 4° C.; mean of repeated tests; read-out: AR Binding IC50
# Description: The description below describes how the assay was carried out. Competitive binding analysis was performed on baculovirus/Sf9 generated hAR extracts in the presence or absence of different concentrations of test agent and a fixed concentration of ^3H-dihydrotestosterone (^3H-DHT) as tracer. […] Compound binding affinity to the hAR is expressed as the concentration of compound at which one half of the maximum binding is inhibited.
Answers are plain numbers, as −log10 of the molar value.

Field: example entries. Status: answers known.
* CCCN(c1cc(C(F)(F)F)c(C#N)cn1)C1CCCCC1 [Example 8] | 6.37
* CN(Cc1ccccc1)c1cc(C(F)(F)F)c(C#N)cn1 [Example 7] | 6.27

Record for CCCCN(CCO)c1cc(C(F)(F)F)c(C#N)cn1 [Example 5] under target or system hAR (human androgen receptor) (Homo sapiens): pIC50 reported as 6.26

* * *

For each record, write down the corresponding IC50.
# study target: androgen receptor (Homo sapiens, UniProt P10275, Q868H)
# Construct: a human breast tumor cell line expressing androgen receptor; endogenous in cells; host or cells: MDA-MB453-MMTV clone 54-19 (MDA-MB-453 stably transfected with the MMTV-luciferase reporter only)
# Sequence (P10275 whole entry Q868H): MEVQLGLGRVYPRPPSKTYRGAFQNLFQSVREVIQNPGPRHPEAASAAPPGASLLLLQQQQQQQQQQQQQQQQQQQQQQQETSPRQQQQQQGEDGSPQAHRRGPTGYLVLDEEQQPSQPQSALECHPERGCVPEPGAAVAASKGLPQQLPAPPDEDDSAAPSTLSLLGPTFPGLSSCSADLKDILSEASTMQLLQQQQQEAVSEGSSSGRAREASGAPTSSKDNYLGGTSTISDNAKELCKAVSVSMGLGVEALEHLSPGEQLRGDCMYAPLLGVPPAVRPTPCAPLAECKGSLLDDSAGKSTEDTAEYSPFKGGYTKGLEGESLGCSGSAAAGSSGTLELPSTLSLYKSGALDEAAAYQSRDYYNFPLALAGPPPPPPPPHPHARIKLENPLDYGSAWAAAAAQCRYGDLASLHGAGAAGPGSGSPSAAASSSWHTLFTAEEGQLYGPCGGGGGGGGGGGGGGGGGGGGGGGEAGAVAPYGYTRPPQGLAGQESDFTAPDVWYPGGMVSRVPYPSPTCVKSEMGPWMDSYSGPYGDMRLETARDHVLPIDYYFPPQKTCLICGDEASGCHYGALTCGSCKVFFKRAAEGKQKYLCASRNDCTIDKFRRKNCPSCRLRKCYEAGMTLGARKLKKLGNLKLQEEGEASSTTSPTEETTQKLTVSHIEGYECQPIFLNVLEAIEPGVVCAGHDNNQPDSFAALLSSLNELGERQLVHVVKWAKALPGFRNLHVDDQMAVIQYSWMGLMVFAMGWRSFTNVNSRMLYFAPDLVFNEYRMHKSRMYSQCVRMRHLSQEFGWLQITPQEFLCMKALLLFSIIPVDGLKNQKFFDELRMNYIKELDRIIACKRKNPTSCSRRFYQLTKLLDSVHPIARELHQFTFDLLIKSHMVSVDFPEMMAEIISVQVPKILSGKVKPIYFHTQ
# run description: AR antagonist cell assay (MDA-MB453-MMTV luciferase reporter, 100 pM DHT)
# Type: cell-based
One number for each entry, in µM.

* C[C@H](c1ccccc1)N(C)c1cc(C(F)(F)F)c(C#N)cn1 [Example 1] | 0.045

IC50 in this record for CC(c1ccccc1)N(C)c1cc(C(F)(F)F)c(C#N)cn1 (centres unmarked) [Example 2] : 0.229
